- Measured on: T1, CD73 on the surface of human tumor cells (human, UniProt P21589 27-549)
- T1 construct: whole, on cells; One entry for endogenous CD73 on all cell lines; the cell line is named under assay or readout; also called CD73 receptors on the surface of tumor cells; tumor cell CD73
- T1 sequence (looked up): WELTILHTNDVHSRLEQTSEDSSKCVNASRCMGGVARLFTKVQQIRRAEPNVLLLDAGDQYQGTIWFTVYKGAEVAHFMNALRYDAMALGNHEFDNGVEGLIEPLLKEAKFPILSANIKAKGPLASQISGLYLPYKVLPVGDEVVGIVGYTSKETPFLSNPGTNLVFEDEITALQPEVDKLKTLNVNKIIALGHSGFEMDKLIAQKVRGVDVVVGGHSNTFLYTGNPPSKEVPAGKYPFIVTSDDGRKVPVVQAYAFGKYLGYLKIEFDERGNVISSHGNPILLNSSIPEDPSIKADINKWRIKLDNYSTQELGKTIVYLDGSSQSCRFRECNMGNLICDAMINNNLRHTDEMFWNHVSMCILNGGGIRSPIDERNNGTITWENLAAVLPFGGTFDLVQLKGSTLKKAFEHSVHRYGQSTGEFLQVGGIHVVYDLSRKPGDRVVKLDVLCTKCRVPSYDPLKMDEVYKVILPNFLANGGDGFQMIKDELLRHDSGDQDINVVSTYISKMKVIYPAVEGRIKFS
- Experiment summary: flow cytometry, MDA-MB-231 cells

| Binder | binding result |
| --- | --- |
| Hu001c-24 (antibody, V domains shown, Humanized) VH: QVQLVQSGAEVKKPGASVKVSCKTSGYTFTNYYIYWVKQRPGQGLEWIGWIYPGNLNIKYNEKFKGRVTITADKSASTAYMELSSLRSEDTAVYYCARDDNYAWFAYWGQGTLVTVSS VL: DIQMTQSPSSLSASVGDRVTITCKASQDVSTAVAWYQQKPGKAPKLLIYWTNTRHTGVPSRFSGSGSGTDHTLTISSLQPEDFATYYCQQHYSTPFTFGQGTKLEIK | binds |

Origin of the recorded values: patent US20210024646A1
